Numbers sourced from the supplement of paper PMC11208160.

# method: recombinant UMI read abundance after kanamycin selection (control-corrected) (log10(CPM+1)); higher = more efficient recombination; extreme values may be limits of the assay; sequences stand for … in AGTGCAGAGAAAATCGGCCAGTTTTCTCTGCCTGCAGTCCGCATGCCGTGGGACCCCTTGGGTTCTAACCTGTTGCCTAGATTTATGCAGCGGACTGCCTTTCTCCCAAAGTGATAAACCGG…AGGTTGGTTTCACT; site = the 11-nt donor
quantity_name: recombinant UMI read abundance (log10)
The answer should be written as a number, with no unit following it.

- sequence_input: "TAGGCTTCATGGACCGGTTTTCCCGGTAATCCGTATTTGGT (site TAGCCTTCTAC)"
  recombinant UMI read abundance (log10): 0.0146

recombinant UMI read abundance (log10) recorded for this sequence, AGGAAGACATGGACCGGTTTTCCCGGTAATCCGTATTTGTA (site AGGAAGACTTG) , is 2.11

What the record says about GAATGAACATGGACCGGTTTTCCCGGTAATCCGTATTTGGT (site GAATGAACTAC) : recombinant UMI read abundance (log10) is 1.55

Summary for this sequence, ATTGTAACATGGACCGGTTTTCCCGGTAATCCGTATTTGCT (site ACTGTAACTAG) : recombinant UMI read abundance (log10) is 1.9

Value of recombinant UMI read abundance (log10) reported for the sequence CGGGCAGCATGGACCGGTTTTCCCGGTAATCCGTATTTGTC (site CGGGCAGCTGA) is 1.93

# sequence ACTAAAACATGGACCGGTTTTCCCGGTAATCCGTATTTGAG (site ACTACAACTCT) ; its recombinant UMI read abundance (log10) = 0.0124

Measured recombinant UMI read abundance (log10), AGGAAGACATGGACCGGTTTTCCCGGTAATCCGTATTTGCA (site TGGAAGACTTA) : 0.696

Value of recombinant UMI read abundance (log10) reported for the sequence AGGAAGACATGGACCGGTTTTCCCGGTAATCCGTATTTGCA (site AGGAAGCCTGG) is 0

Input CGCGCGCCATGGACCGGTTTTCCCGGTAATCCGTATTTGTT (site CGCGCGCCTAA) . Output recombinant UMI read abundance (log10): 0.0124

Input CATTAGACATGGACCGGTTTTCCCGGTAATCCGTATTTGAG (site CCTTAGACTCT) . Output recombinant UMI read abundance (log10): 0.769

According to the records, this sequence GTGCATGCATGGACCGGTTTTCCCGGTAATCCGTATTTGCT (site GTGCATGCTAG) displays recombinant UMI read abundance (log10) of 2.86

----------
# method: recombinant barcode read abundance after kanamycin selection (control-corrected) (log10(CPM+1)); higher = more efficient recombination; sequences stand for … in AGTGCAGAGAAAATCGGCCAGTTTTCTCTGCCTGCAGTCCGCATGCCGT…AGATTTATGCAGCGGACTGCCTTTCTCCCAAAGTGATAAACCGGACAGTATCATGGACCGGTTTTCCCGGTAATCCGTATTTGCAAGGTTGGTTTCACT; site = the 11-nt target
Field: class. Source value: recombinant barcode read abundance (log10). Ranges: low group = under 0.08, middle group = from 0.08 up to 0.3, high group = 0.3 and over

Solved cases (3 shown):
- sequence_input: "GCTTCTTCTTGGGTTCTAACCTGTTGCCT (site GGTTCTTCTAG)"
  class_name: "low group"
- sequence_input: "GTAGGGACTTGGGTTCTAACCTGTTGCCG (site AGCCCTTCTAA)"
  class_name: "middle group"
- sequence_input: "CGGACTTCTTGGGTTCTAACCTGTTGCCT (site CGGACTTCTAG)"
  class_name: "low group"

Class label required: AGGTCTGCTTGGGTTCTAACCTGTTGCCT (site AGGTATGCTAG) high group

Input GGAATGCCTTGGGTTCTAACCTGTTGCCT (site GGAATACCTAG) ; output its category high group

GET /class?item= ATTTCGACTTGGGTTCTAACCTGTTGCGG (site GCAGGTGCTAA) low group
